Target Of Assay: T1, biotinylated EpoR (Abbott CHO cell derived ref.#RB69084:4) (UniProt P19235 25-250, limits assumed, biotinylated with biotin-NHS (sites not given))
T1 construct: also called biotin EpoR; biotin-EpoR
T1 sequence (looked up): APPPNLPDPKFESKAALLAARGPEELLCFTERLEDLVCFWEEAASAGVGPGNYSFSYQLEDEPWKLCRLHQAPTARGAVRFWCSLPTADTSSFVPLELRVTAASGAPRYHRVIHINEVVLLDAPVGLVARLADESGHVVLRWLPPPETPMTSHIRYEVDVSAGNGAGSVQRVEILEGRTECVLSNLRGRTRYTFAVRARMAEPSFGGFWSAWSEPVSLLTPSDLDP
Assay Explanation: ELISA, biotin-EpoR on streptavidin plate, HEK 293 supernatant titrated 1:2
Measure: Binding (dilution of the supernatant in ELISA)

Sample answers from the record:
human anti-EPO-R antibody expressed by the cell line designated ABT2-SCX-022 (antibody, human IgG2, V domains shown, also called Ab22) VH: QVQLVESGGGVVQPGRSLRLSCAASGFTFSSYGMHWVRQAPGKGLEWVVVISYDGSNKYYADSVKGRFTISRDNSKNTLYLQMNSLRVEDTAVYYCARDHGGRYVYDYGMDVWGQGTTVTVSS VL: DIQMTQSPSSVSASVGDRVSITCRASQGISSWLAWYQQKPGKAPTLLIYAASSLQRGVPSRFSGSGSGTDFTLTISSLQPEDFATYFCQQANSFPFTFGPGTKVDIK ... > 64 1:n dilution of supernatant
human anti-EPO-R antibody expressed by the cell line designated ABT2-SCX-060 (antibody, human IgG2, V domains shown, also called Ab60) VH: QVQLVESGGGVVQPGRSLRLSCAASGFTFSSYGMHWVRQAPGKGLEWVAVISYDGSNKYYADSVKGRFTISRDNSKNTLYLQMNSLRVEDTAVYYCARDHGGRYVYDYGMDVWGQGTTVTVSS VL: DIQMTQSPSSVSASVGDRVSITCRASQGISSWLAWYQQKPGKAPTLLIYAASSLQRGVPSRFSGSGSGTDFTLTISSLQPEDFATYFCQQANSFPFTFGPGTKVDIK ... > 64 1:n dilution of supernatant
human anti-EPO-R antibody expressed by the cell line designated ABT2-SCX-254 (antibody, human IgG2, V domains shown, also called Ab254) VH: QVQLVESGGGVVQPGRSLRLSCAASGFTFSSYGMHWVRQAPGKGLEWVAVIWFDGNNKFYADSVKGRFTISRDNSKNTLYLQMNSLRVEDTAVYYCARGGSYWDYWGQGTLVTVSS VL: DIVMTQTPLFSFVMIGQPASISCRSRQSLVHSDGNTYLNWLQQRPGQPPRLLIYKTSNRFSGVPDRFSGSGAGTDFTLKISRVEAEDVGVYYCMQATQFPITFGQGTRLEIK ... 8 1:n dilution of supernatant
human anti-EPO-R antibody expressed by the cell line designated ABT2-SCX-003 (antibody, human IgG2, V domains shown, also called Ab3) VH: QVQLVESGGGVVQPGRSLRLSCAASGFTFSSYGMHWVRQAPGKGLEWVAVISYDGSNKYYADSVKGRFTISRDNSKNTLYLQMNSLRVEDTAVYYCARDHGGRYVYDYGMDVWGQGTTVTVSS VL: DIQMTQSPSSVSASVGDRVSITCRASQGISSWLVWYQQKPGKAPALLIYAASSLQRGVPSRFSGSGSGTDFTLTISSLQPEDFATYFCQQANSFPFTFGPGTKVDIK ... > 64 1:n dilution of supernatant

Attention now turns to another entry.
Task: Check the records and state Binding (dilution of the supernatant in ELISA) for human anti-EPO-R antibody expressed by the cell line designated ABT2-SCX-135 (antibody, human IgG2, V domains shown, also called Ab135) VH: QVQLVESGGGVVQPGRSLRLSCAASGFTFSSYGMHWVRQAPGKGLEWVAVISYDGSNKYYADSVKGRFTISRDNSKNTLYLQMNSLRVEDTAVYYCARDHGGRYVYDYGMDVWGQGTTVTVSS VL: DIQMTQSPSSVSTSVGDRVSITCRASQGIGSWLAWYQQKPGQAPTLLIYAASSLQRGVPSRFSGSGSGTDFTLTINSLQPEDFATYFCQQANSFPFTFGPGTKVDVK
Output: 4 1:n dilution of supernatant
